This collection of values is drawn from ChEMBL document CHEMBL1275496.

- Test details: Half life in Candida infected ICR/Swiss neutropenic mouse at 80 mg/kg, ip
- Format: ADME, organism-based
- Design: dose 80 mg/kg, route intraperitoneal
- Measurement conditions: in vivo
*1 amine or outer side, *2 acyl side, *3 side chain or, on linkers, in order; H or OH if unused. Where a SMILES comes first, the peptide text is derived from it. Bridges are numbered along the chain shown (N, C = ends). [ ]: non-standard residue; d: D form. The star is where a group is joined. hTyr(3S-OH,4S-OH,3'-OSO3H) = N[C@H](C(=O)O)[C@H](O)[C@@H](O)c1ccc(O)c(OS(=O)(=O)O)c1; Orn(4R-OH,5R-OH) = O=C([C@H](C[C@@H](O)[C@@H](O)N[*:3])N[*:1])[*:2]; Pro(3S-OH,4S-Me) = C[C@H]1CN[C@H](C(=O)O)[C@H]1O; X1 = CCCCCOc1ccc(-c2cc(-c3ccc(C(=O)*)cc3)no2)cc1; Gln(3R-OH) = NC(=O)C[C@@H](O)[C@H](N)C(=O)O; Hyp = O=C(O)[C@@H]1C[C@@H](O)CN1
Experimental endpoint: half-life (h)
Express your answer in h, writing the number without its unit.

# return recorded half-life for input CCCCCOc1ccc(-c2cc(-c3ccc(C(=O)N[C@H]4C[C@@H](O)[C@@H](O)NC(=O)[C@@H]5[C@@H](O)[C@@H](C)CN5C(=O)[C@H]([C@H](O)CC(N)=O)NC(=O)[C@H]([C@H](O)[C@@H](O)c5ccc(O)c(OS(=O)(=O)O)c5)NC(=O)[C@@H]5C[C@@H](O)CN5C(=O)[C@H]([C@@H](C)O)NC4=O)cc3)no2)cc1 [MICAFUNGIN] (X1-[Orn(4R-OH,5R-OH)]T[Hyp][hTyr(3S-OH,4S-OH,3'-OSO3H)][Gln(3R-OH)][Pro(3S-OH,4S-Me)]; lactam 1-C) 16

* * *

- Test details: Cmax in Candida infected ICR/Swiss neutropenic mouse at 80 mg/kg, ip
- Assay type: ADME, organism-based
- Design: dose 80 mg/kg, route intraperitoneal
- Measurement conditions: in vivo
*1 amine or outer side, *2 acyl side, *3 side chain or, on linkers, in order; H or OH if unused. Where a SMILES comes first, the peptide text is derived from it. Bridges are numbered along the chain shown (N, C = ends). [ ]: non-standard residue; d: D form. The star is where a group is joined. hTyr(3S-OH,4S-OH,3'-OSO3H) = N[C@H](C(=O)O)[C@H](O)[C@@H](O)c1ccc(O)c(OS(=O)(=O)O)c1; Orn(4R-OH,5R-OH) = O=C([C@H](C[C@@H](O)[C@@H](O)N[*:3])N[*:1])[*:2]; Pro(3S-OH,4S-Me) = C[C@H]1CN[C@H](C(=O)O)[C@H]1O; X1 = CCCCCOc1ccc(-c2cc(-c3ccc(C(=O)*)cc3)no2)cc1; Gln(3R-OH) = NC(=O)C[C@@H](O)[C@H](N)C(=O)O; Hyp = O=C(O)[C@@H]1C[C@@H](O)CN1
Experimental endpoint: Cmax

# return recorded Cmax for input CCCCCOc1ccc(-c2cc(-c3ccc(C(=O)N[C@H]4C[C@@H](O)[C@@H](O)NC(=O)[C@@H]5[C@@H](O)[C@@H](C)CN5C(=O)[C@H]([C@H](O)CC(N)=O)NC(=O)[C@H]([C@H](O)[C@@H](O)c5ccc(O)c(OS(=O)(=O)O)c5)NC(=O)[C@@H]5C[C@@H](O)CN5C(=O)[C@H]([C@@H](C)O)NC4=O)cc3)no2)cc1 [MICAFUNGIN] (X1-[Orn(4R-OH,5R-OH)]T[Hyp][hTyr(3S-OH,4S-OH,3'-OSO3H)][Gln(3R-OH)][Pro(3S-OH,4S-Me)]; lactam 1-C) 53 µg/mL

* * *

- Test details: AUC (0 to infinity) in Candida infected ICR/Swiss neutropenic mouse at 80 mg/kg, ip
- Type: ADME, organism-based
- Parameters: time infinity, dose 80 mg/kg, route intraperitoneal
- Measurement conditions: plasma
*1 amine or outer side, *2 acyl side, *3 side chain or, on linkers, in order; H or OH if unused. Where a SMILES comes first, the peptide text is derived from it. Bridges are numbered along the chain shown (N, C = ends). [ ]: non-standard residue; d: D form. The star is where a group is joined. hTyr(3S-OH,4S-OH,3'-OSO3H) = N[C@H](C(=O)O)[C@H](O)[C@@H](O)c1ccc(O)c(OS(=O)(=O)O)c1; Orn(4R-OH,5R-OH) = O=C([C@H](C[C@@H](O)[C@@H](O)N[*:3])N[*:1])[*:2]; Pro(3S-OH,4S-Me) = C[C@H]1CN[C@H](C(=O)O)[C@H]1O; X1 = CCCCCOc1ccc(-c2cc(-c3ccc(C(=O)*)cc3)no2)cc1; Gln(3R-OH) = NC(=O)C[C@@H](O)[C@H](N)C(=O)O; Hyp = O=C(O)[C@@H]1C[C@@H](O)CN1
Experimental endpoint: AUC(0-inf) (µg·h/mL)
Express your answer in µg·h/mL, writing the number without its unit.

# return recorded AUC(0-inf) for input CCCCCOc1ccc(-c2cc(-c3ccc(C(=O)N[C@H]4C[C@@H](O)[C@@H](O)NC(=O)[C@@H]5[C@@H](O)[C@@H](C)CN5C(=O)[C@H]([C@H](O)CC(N)=O)NC(=O)[C@H]([C@H](O)[C@@H](O)c5ccc(O)c(OS(=O)(=O)O)c5)NC(=O)[C@@H]5C[C@@H](O)CN5C(=O)[C@H]([C@@H](C)O)NC4=O)cc3)no2)cc1 [MICAFUNGIN] (X1-[Orn(4R-OH,5R-OH)]T[Hyp][hTyr(3S-OH,4S-OH,3'-OSO3H)][Gln(3R-OH)][Pro(3S-OH,4S-Me)]; lactam 1-C) 1400

* * *

- Test details: Cmax in Candida infected ICR/Swiss neutropenic mouse at 5 mg/kg, ip
- Format: ADME, organism-based
- Set-up: dose 5 mg/kg, route intraperitoneal
- Measurement conditions: in vivo
*1 amine or outer side, *2 acyl side, *3 side chain or, on linkers, in order; H or OH if unused. Where a SMILES comes first, the peptide text is derived from it. Bridges are numbered along the chain shown (N, C = ends). [ ]: non-standard residue; d: D form. The star is where a group is joined. hTyr(3S-OH,4S-OH,3'-OSO3H) = N[C@H](C(=O)O)[C@H](O)[C@@H](O)c1ccc(O)c(OS(=O)(=O)O)c1; Orn(4R-OH,5R-OH) = O=C([C@H](C[C@@H](O)[C@@H](O)N[*:3])N[*:1])[*:2]; Pro(3S-OH,4S-Me) = C[C@H]1CN[C@H](C(=O)O)[C@H]1O; X1 = CCCCCOc1ccc(-c2cc(-c3ccc(C(=O)*)cc3)no2)cc1; Gln(3R-OH) = NC(=O)C[C@@H](O)[C@H](N)C(=O)O; Hyp = O=C(O)[C@@H]1C[C@@H](O)CN1
Experimental endpoint: Cmax (ng/mL)
Express your answer in ng/mL, writing the number without its unit.

# return recorded Cmax for input CCCCCOc1ccc(-c2cc(-c3ccc(C(=O)N[C@H]4C[C@@H](O)[C@@H](O)NC(=O)[C@@H]5[C@@H](O)[C@@H](C)CN5C(=O)[C@H]([C@H](O)CC(N)=O)NC(=O)[C@H]([C@H](O)[C@@H](O)c5ccc(O)c(OS(=O)(=O)O)c5)NC(=O)[C@@H]5C[C@@H](O)CN5C(=O)[C@H]([C@@H](C)O)NC4=O)cc3)no2)cc1 [MICAFUNGIN] (X1-[Orn(4R-OH,5R-OH)]T[Hyp][hTyr(3S-OH,4S-OH,3'-OSO3H)][Gln(3R-OH)][Pro(3S-OH,4S-Me)]; lactam 1-C) 7000

* * *

- Test details: AUC (0 to infinity) in Candida infected ICR/Swiss neutropenic mouse at 5 mg/kg, ip
- Assay type: ADME, organism-based
- Parameters: dose 5 mg/kg, route intraperitoneal, time infinity
- Measurement conditions: plasma
*1 amine or outer side, *2 acyl side, *3 side chain or, on linkers, in order; H or OH if unused. Where a SMILES comes first, the peptide text is derived from it. Bridges are numbered along the chain shown (N, C = ends). [ ]: non-standard residue; d: D form. The star is where a group is joined. hTyr(3S-OH,4S-OH,3'-OSO3H) = N[C@H](C(=O)O)[C@H](O)[C@@H](O)c1ccc(O)c(OS(=O)(=O)O)c1; Orn(4R-OH,5R-OH) = O=C([C@H](C[C@@H](O)[C@@H](O)N[*:3])N[*:1])[*:2]; Pro(3S-OH,4S-Me) = C[C@H]1CN[C@H](C(=O)O)[C@H]1O; X1 = CCCCCOc1ccc(-c2cc(-c3ccc(C(=O)*)cc3)no2)cc1; Gln(3R-OH) = NC(=O)C[C@@H](O)[C@H](N)C(=O)O; Hyp = O=C(O)[C@@H]1C[C@@H](O)CN1
Experimental endpoint: AUC(0-inf)
State the result as a value with its unit after it.

# return recorded AUC(0-inf) for input CCCCCOc1ccc(-c2cc(-c3ccc(C(=O)N[C@H]4C[C@@H](O)[C@@H](O)NC(=O)[C@@H]5[C@@H](O)[C@@H](C)CN5C(=O)[C@H]([C@H](O)CC(N)=O)NC(=O)[C@H]([C@H](O)[C@@H](O)c5ccc(O)c(OS(=O)(=O)O)c5)NC(=O)[C@@H]5C[C@@H](O)CN5C(=O)[C@H]([C@@H](C)O)NC4=O)cc3)no2)cc1 [MICAFUNGIN] (X1-[Orn(4R-OH,5R-OH)]T[Hyp][hTyr(3S-OH,4S-OH,3'-OSO3H)][Gln(3R-OH)][Pro(3S-OH,4S-Me)]; lactam 1-C) 138 µg·h/mL
